- SYSTEM NAME: PRMT5/MEP50 complex (Homo sapiens, UniProt O14744)
- Sequence (O14744 whole entry): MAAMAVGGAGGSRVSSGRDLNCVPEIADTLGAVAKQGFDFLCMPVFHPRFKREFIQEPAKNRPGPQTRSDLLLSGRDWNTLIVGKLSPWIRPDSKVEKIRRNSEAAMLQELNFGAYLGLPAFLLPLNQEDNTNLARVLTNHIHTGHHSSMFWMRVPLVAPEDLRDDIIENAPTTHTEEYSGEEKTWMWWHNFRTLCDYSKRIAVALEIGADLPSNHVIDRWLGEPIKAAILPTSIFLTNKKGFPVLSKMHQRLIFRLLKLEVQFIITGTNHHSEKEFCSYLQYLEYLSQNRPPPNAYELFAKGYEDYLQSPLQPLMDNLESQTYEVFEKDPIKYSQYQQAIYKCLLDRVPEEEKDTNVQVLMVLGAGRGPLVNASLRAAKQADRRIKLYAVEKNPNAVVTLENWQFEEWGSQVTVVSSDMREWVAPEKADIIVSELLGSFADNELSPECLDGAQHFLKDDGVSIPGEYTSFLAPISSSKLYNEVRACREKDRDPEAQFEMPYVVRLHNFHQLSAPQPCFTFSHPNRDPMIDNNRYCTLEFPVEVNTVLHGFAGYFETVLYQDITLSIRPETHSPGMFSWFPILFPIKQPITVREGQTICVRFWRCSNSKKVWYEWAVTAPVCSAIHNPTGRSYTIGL
- Sequence (Q9BQA1 whole entry, further chain): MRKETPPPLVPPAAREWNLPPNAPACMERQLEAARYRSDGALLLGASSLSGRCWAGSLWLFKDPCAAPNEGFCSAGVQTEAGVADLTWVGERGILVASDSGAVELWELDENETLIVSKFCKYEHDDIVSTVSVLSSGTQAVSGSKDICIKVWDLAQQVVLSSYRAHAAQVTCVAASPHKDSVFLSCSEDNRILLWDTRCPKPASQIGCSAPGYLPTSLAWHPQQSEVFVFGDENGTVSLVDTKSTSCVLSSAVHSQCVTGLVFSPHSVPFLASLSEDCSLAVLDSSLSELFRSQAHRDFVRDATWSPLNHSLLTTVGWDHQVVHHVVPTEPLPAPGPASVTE
- PROTOCOL NOTES: Inhibition of recombinant Avi-tagged PRMT5 (2 to 637)/ His-tagged MEP50 (2 to 342) (unknown origin) expressed in baculovirus infected Sf21 cells using biotinylated H4R3 (Me1) peptide as substrate in presence of SAM preincubated for 60 mins followed by substrate addition after 150 mins by biochemical methylation assay
pEC50: −log10 of the molar value.

# MOLECULE, pEC50
measured = [
    ("CCC1CCN2C(=O)[C@](c3ccccc3)(C34CC5CC(CC(C5)C3)C4)N=C2N1 (stereo not given in full)", 7.17),
    ("CN1C(=O)[C@](c2ccc3ccccc3c2)(C23CC4CC(CC(C4)C2)C3)N=C1N", 7.05),
    ("CN1C(=O)[C@@](CCC2CCCCC2)(c2ccccc2)N=C1N", 7.30),
    ("COc1ccc([C@]2(C34CC5CC(CC(C5)C3)C4)N=C(N)N(C)C2=O)cc1", 5.51),
    ("CN1C(=O)[C@](c2ccccc2)(C23CC4CC(CC(C4)C2)C3)N=C1N", 7.92),
]

###

- SYSTEM NAME: Protein arginine N-methyltransferase 5 (Homo sapiens, UniProt O14744)
- Sequence (O14744 whole entry): as the sequence (O14744 whole entry) above
- PROTOCOL NOTES: Inhibition of PRMT5 in human MCF7 cells assessed as reduction in symmetrically dimethylated nuclear protein level incubated for 3 days by Alexafluor-488 conjugate anti-rabbit antibody/DAPI staining based IN cell analyzer method
pEC50: −log10 of the molar value.
READOUT: pEC50

# SMILES STR, ASSAY RESULT
records = [
    ("COc1ccc([C@@]2(C34CC5CC(CC(C5)C3)C4)N=C(N)N(C)C2=O)cc1", 5.34),
]

###

- SYSTEM NAME: PRMT5/MEP50 complex (Homo sapiens)
- PROTOCOL NOTES: Inhibition of recombinant Avi-tagged PRMT5 (2 to 637)/ His-tagged MEP50 (2 to 342) (unknown origin) expressed in baculovirus infected Sf21 cells using biotinylated H4R3 (Me1) peptide as substrate in presence of SAM preincubated for 60 mins followed by substrate addition after 150 mins by biochemical methylation assay
Threshold 70 nM: EC50 strictly smaller gives Met, otherwise Not met.

# COMPOUND, QUALITATIVE LABEL
measured = [
    ("COc1ccc([C@@]2(C34CCC(CC3)CC4)N=C(N)N(C)C2=O)cc1", "Not met"),
    ("CC1CCN2C(=O)[C@](c3ccccc3)(C34CC5CC(CC(C5)C3)C4)N=C2N1 (stereo partly specified)", "Met"),
    ("COc1ccc([C@@]2(C34CC5CC(CC(O)(C5)C3)C4)N=C(N)N(C)C2=O)cc1", "Not met"),
    ("COc1ccc([C@@]2(C34CC5CC(CC(C5)C3)C4)N=C(N)N(C)C2=O)cc1", "Met"),
    ("COc1cccc([C@@]2(C34CC5CC(CC(C5)C3)C4)N=C(N)N(C)C2=O)c1", "Met"),
    ("COc1ccc(C2(C34CC5CC(O)(CC(F)(C5)C3)C4)N=C(N)N(C)C2=O)cc1 (stereo unspecified)", "Not met"),
]

Source: ChEMBL document CHEMBL4619823
